B1: Arabidopsis thaliana cryptochrome 2 (CRY2, UniProt Q96524), residues 1-535 fused after the Gal4 DNA-binding domain (Gal4BD-CRY2(535)); mutagenized window 321-412, Q96524 (parent)
chain: MKMDKKTIVWFRRDLRIEDNPALAAAAHEGSVFPVFIWCPEEEGQFYPGRASRWWMKQSLAHLSQSLKALGSDLTLIKTHNTISAILDCIRVTGATKVVFNHLYDPVSLVRDHTVKEKLVERGISVQSYNGDLLYEPWEIYCEKGKPFTSFNSYWKKCLDMSIESVMLPPPWRLMPITAAAEAIWACSIEELGLENEAEKPSNALLTRAWSPGWSNADKLLNEFIEKQLIDYAKNSKKVVGNSTSLLSPYLHFGEISVRHVFQCARMKQIIWARDKNSEGEESADLFLRGIGLREYSRYICFNFPFTHEQSLLSHLRFFPWDADVDKFKAWRQGRTGYPLVDAGMRELWATGWMHNRIRVIVSSFAVKFLLLPWKWGMKYFWDTLLDADLECDILGWQYISGSIPDGHELDRLDNPALQGAKYDPEGEYIRQWLPELARLPTEWIHHPWDAPLTVLKASGVELGTNYAKPIVDIDTARELLAKAISRTREAQIMIGAAPDEIVADSFEALGANTIKEPGLCPSVSSNDQQVPSAV

- Variants of: B1
- assay comment: yeast two-hybrid growth selection (MaV203; Gal4BD-CRY2(1-535) library x Gal4AD-CIB1; URA3 reporter on SC -Trp/-Leu/-Ura) in the dark, deep sequencing before and after selection, Enrich2 scoring; three independent screens (one at 48 h, two …)
- recorded conditions: with CIB1 (CRYPTOCHROME-INTERACTING BASIC-HELIX-LOOP-HELIX 1), dark (no blue light), screens 1, 3 and 4, Svar > 0 = enriched under dark selection for CRY2-CIB1 two-hybrid growth (URA3 reporter), < 0 = depleted, relative to wild type (whose scores are 0). 'The Enrich2 software calculates, parent: 0, not an affinity, scale: Enrich2 score, numbering: uniprot, sequence starts at 1
Label rule, in plain words: enrichment of 2 and up is criterion met, under 2 is criterion not met.

Some solved entries appear below for comparison.
Threshold query (enrichment >= 2) on D324N
criterion not met

Threshold query (enrichment >= 2) on Q398R
criterion met

Threshold query (enrichment >= 2) on L395F
criterion met

Threshold query (enrichment >= 2) on F369S
criterion not met

Threshold query (enrichment >= 2) on Y399H
criterion not met

Next:
Threshold query (enrichment >= 2) on D387E
criterion not met

Threshold query (enrichment >= 2) on A330D
criterion not met

Threshold query (enrichment >= 2) on K379R
criterion not met

Threshold query (enrichment >= 2) on K375E
criterion met

Threshold query (enrichment >= 2) on K368Q
criterion met

Threshold query (enrichment >= 2) on L410R
criterion not met
